# System: NCI-H522
# PROTOCOL_TEXT: NCI tumour cell line growth inhibition, 48 h
Active and inactive are the calls of the source. Cut-off read from the data, not from the text of the source: active = GI50 up to about 1.1 µM and inactive = higher.
Result category, one only: active, inactive

Take a look at these entries with their results.
{"COMPOUND": "O=C(N/N=C(COc1ccc(Cl)cc1)\\N=C\\c1ccncc1)c1ccncc1", "TESTED_SYSTEM": "NCI-H522", "CATEGORY": "inactive"}
{"COMPOUND": "COC(=O)[C@H](Cc1ccccc1)NC(=O)N(CCN(CCC#N)C(=O)N[C@H](C(=O)OC)C(C)C)c1ccccc1", "TESTED_SYSTEM": "NCI-H522", "CATEGORY": "inactive"}
{"COMPOUND": "CCOC(=O)C(=O)NCCCN1CCOCC1", "TESTED_SYSTEM": "NCI-H522", "CATEGORY": "inactive"}

Query: For this compound, state the assay outcome: `COc1cccc(/C=N/[N-]C(=S)Nc2ccccc2)c1[O-].O.[Zn+2]`
Reply: inactive

Query: For this compound, state the assay outcome: `O=C(/C=C/c1ccc([N+](=O)[O-])cc1)c1ccc(NCc2nc3ccccc3[nH]2)cc1`
Reply: inactive

Query: For this compound, state the assay outcome: `COC(=O)c1c(N)n[nH]c1N`
Reply: inactive

Query: For this compound, state the assay outcome: CCOC(=O)C1CCCCN1CCc1c[nH]c2ccccc12 (stereo unspecified)
Reply: inactive

----------
# Test system: T47D
# PROTOCOL_TEXT: NCI tumour cell line growth inhibition, 48 h
The source made the active and inactive calls. No stated cut-off is given here; in the data, active = GI50 up to about 1.1 µM and inactive = higher.
Result category, one only: active, inactive

{"MOLECULE": "COc1ccc(C(SCCO)(c2ccccc2)c2ccccc2)cc1", "TESTED_SYSTEM": "T47D", "CATEGORY": "inactive"}
{"MOLECULE": "C=C(C)C(CC=C(C)C)CC12CC(CC=C(C)C)C(C)(C)C(CC=C(C)C)(C(=O)C(Cc3ccc(O)c(O)c3)=C1O)C2=O (stereo not drawn)", "TESTED_SYSTEM": "T47D", "CATEGORY": "inactive"}
{"MOLECULE": "COc1ccc2cc3[n+](cc2c1OC)CCc1cc2c(cc1-3)OCO2", "TESTED_SYSTEM": "T47D", "CATEGORY": "inactive"}
{"MOLECULE": "O=C(CCCC(=O)N1CC(CCl)c2ccc([N+](=O)[O-])cc21)N1CC(CCl)c2ccc([N+](=O)[O-])cc21 (stereo not drawn)", "TESTED_SYSTEM": "T47D", "CATEGORY": "inactive"}
{"MOLECULE": "CC(=O)NC1C(OCc2ccccc2)OC(CO)C(O)C1OC(C)C(=O)N[C@@H](C)C(=O)N[C@H](CCC(=O)NCCNCCNc1c2ccccc2nc2cccc([N+](=O)[O-])c12)C(N)=O (stereo partly drawn)", "TESTED_SYSTEM": "T47D", "CATEGORY": "active"}
{"MOLECULE": "CC(C)(Cc1ccccc1)N1C(=O)N1C(C)(C)Cc1ccccc1", "TESTED_SYSTEM": "T47D", "CATEGORY": "inactive"}
{"MOLECULE": "C[C@@H]1Nc2cc(NC(=O)OCCF)nc(N)c2N=C1c1ccccc1", "TESTED_SYSTEM": "T47D", "CATEGORY": "inactive"}

--- query ---
Query: For this molecule, state the assay outcome: `c1cc(-c2ccc(-c3ccc(C4=NCCCN4)cc3)o2)ccc1C1=NCCCN1`
Reply: inactive

----------
# Tested on: TK-10
# PROTOCOL_TEXT: NCI tumour cell line growth inhibition, 48 h
Calls of active or inactive are those of the source. Cut-off read from the data, not from the text of the source: active = GI50 up to about 1.1 µM and inactive = higher.
Result category, one only: 1 (yes) for active, 0 (no) for inactive

{"COMPOUND": "CN(C)CCCNc1ncnc2c1ncn2C1OC(CO)C(O)C1O (centres undefined)", "CATEGORY": "0 (no)"}
{"COMPOUND": "CCCC1C(CC)C(NC)C(C#N)(C#N)C1(C#N)C#N (centres undefined)", "CATEGORY": "0 (no)"}
{"COMPOUND": "NS(=O)(=O)c1ccc(/C=C/c2ccc(F)cc2)cc1", "CATEGORY": "0 (no)"}

Query: For this compound, state the assay outcome: `CC1=[N+]([O-])C(C)(C)N(N=O)C1(C)C`
Reply: 0 (no)

Query: For this compound, state the assay outcome: CCOC(=O)C1(Cc2ccccc2)Cc2ccccc2C1=O (centres undefined)
Reply: 0 (no)

Query: For this compound, state the assay outcome: `O=C(/C=C/c1ccc([N+](=O)[O-])cc1)c1ccc(NCc2nc3ccccc3[nH]2)cc1`
Reply: 0 (no)

Query: For this compound, state the assay outcome: `O=C(c1c(F)c(F)c(F)c(F)c1F)n1c(O)nc2ccccc21`
Reply: 0 (no)

----------
# Test system: UO-31
# PROTOCOL_TEXT: NCI tumour cell line growth inhibition, 48 h
Calls of active or inactive are those of the source. No stated cut-off is given here; in the data, active = GI50 up to about 1.1 µM and inactive = higher.
GI50 reference

Query: Supply recorded GI50 for CC1(C(O)c2ccccc2)CN(C(C)(C)C)C(=O)/C1=C\Sc1ccccc1 (stereo not drawn) here.
Reply: 29.7 µM (inactive)

Query: Supply recorded GI50 for `CC(C)[Si](OC1=CCC[C@H]2NC(=O)[C@@H](Cc3ccccc3)[C@@]12C)(C(C)C)C(C)C` here.
Reply: 10.1 µM (inactive)

Query: Supply recorded GI50 for `C[C@@H]1C[C@H]2CC[C@H](O2)[C@H](C)C(=O)O[C@@H](C)C[C@@H]2CC[C@@H](O2)[C@@H](C)C(=O)O[C@H](C)C[C@H]2CC[C@H](O2)[C@H](C)C(=O)O[C@@H](C)C[C@@H]2CC[C@@H](O2)[C@@H](C)C(=O)O1` here.
Reply: 0.374 µM (active)

----------
# Test system: KM12
# PROTOCOL_TEXT: NCI tumour cell line growth inhibition, 48 h
Calls of active or inactive are those of the source. No stated cut-off is given here; in the data, active = GI50 up to about 1.1 µM and inactive = higher.
Result category, one only: active, inactive

Query: For this compound, state the assay outcome: `C=CCn1c(=O)n(CC=C)c(=O)n(CC=C)c1=O`
Reply: inactive

Query: For this compound, state the assay outcome: `CCOC(=O)C(COS(C)(=O)=O)(COS(C)(=O)=O)C(=O)OCC`
Reply: inactive

Query: For this compound, state the assay outcome: CCOC(=O)CCC(NC(=O)c1ccc(Nc2nc3ccccc3nc2C(=O)OCC)s1)C(=O)OCC (stereo not drawn)
Reply: inactive

Query: For this compound, state the assay outcome: O=C(O)CCC(NC(=O)c1ccc(CNc2nc3cc(C(F)(F)F)ccc3nc2C(=O)O)cc1)C(=O)O (stereo not drawn)
Reply: inactive

----------
# Test system: KM-20L2
# PROTOCOL_TEXT: NCI tumour cell line growth inhibition, 48 h
Calls of active or inactive are those of the source. Rule as the data show it: active = GI50 up to about 1.1 µM and inactive = higher.
PROPERTY_LABEL: GI50

Query: Supply recorded GI50 for CC(C)N(C(=O)C12C3C4C5(C(=O)O)C(C1C35I)C42C(=O)O)C(C)C (stereo unspecified) here.
Reply: > 100 µM (inactive)

Query: Supply recorded GI50 for Cc1c2n(c(=O)[nH]c1=O)C1OC(CO)C(N=[N+]=[N-])C1O2 (stereo unspecified) here.
Reply: > 100 µM (inactive)

Query: Supply recorded GI50 for `COC(=O)c1nn(C(=N)c2ccc(Cl)cc2)c2c1CCCCC2` here.
Reply: > 100 µM (inactive)

----------
# Test system: NCI/ADR-RES
# PROTOCOL_TEXT: NCI tumour cell line growth inhibition, 48 h
The source made the active and inactive calls. Rule as the data show it: active = GI50 up to about 1.1 µM and inactive = higher.
Result category, one only: 1.0 (active), 0.0 (inactive)

Take a look at these entries with their results.
{"COMPOUND": "CC[C@@]1(O)C(=O)OCc2c1cc1n(c2=O)Cc2c-1nc1ccccc1c2/C=N\\NC(=O)C(N)Cc1c[nH]c2ccccc12 (stereo not given in full)", "CATEGORY": 1.0}
{"COMPOUND": "CN1C(=O)C2CCCC(=O)N2c2cccnc21 (stereo not given)", "CATEGORY": 0.0}
{"COMPOUND": "COc1ccc(C(SCCO)(c2ccccc2)c2ccccc2)cc1", "CATEGORY": 0.0}
{"COMPOUND": "C=Cc1ccccc1C1C(C(=O)OCC)=C(C)N=C2OC(C(=O)OC)C(=O)N21 (stereo not given)", "CATEGORY": 0.0}

Query: For this compound, state the assay outcome: `CCOC(=O)c1c(N2CCCC2)ncn(Cc2ccccc2)c1=S`
Reply: 0.0

----------
# Test system: NCI/ADR-RES
# PROTOCOL_TEXT: NCI tumour cell line growth inhibition, 48 h
The source made the active and inactive calls. No stated cut-off is given here; in the data, active = GI50 up to about 1.1 µM and inactive = higher.
PROPERTY_LABEL: GI50

For orientation, consider the following solved cases.
{"COMPOUND": "COc1cc2c(cc1C)NC(=O)/C2=C/c1c(Cl)[nH]c2cc(C)c(OC)cc12", "GI50": "3.19 µM (inactive)"}
{"COMPOUND": "N#CC(C#N)=C1CCCCc2ccc([N+](=O)[O-])cc21", "GI50": "> 100 µM (inactive)"}
{"COMPOUND": "Cc1c(NC(=O)c2cc([N+](=O)[O-])cc([N+](=O)[O-])c2)c(=O)n(-c2ccccc2)n1C", "GI50": "> 100 µM (inactive)"}
{"COMPOUND": "COc1ccc2c(c1)[n+]([O-])c(C#N)c(N1CCN(c3ccc([N+](=O)[O-])cc3)CC1)[n+]2[O-]", "GI50": "2.45 µM (inactive)"}
{"COMPOUND": "COC(=O)C1c2c(c3ccccc3n2C(=O)OC)CCN2CCC1C(S(=O)(=O)c1ccccc1)C2=O (stereo not given)", "GI50": "> 100 µM (inactive)"}

Query: Supply recorded GI50 for `COc1nc2ncc([C@@H](OC(C)=O)[C@@H](COC(C)=O)OC(C)=O)nc2c(=O)n1C` here.
Reply: > 100 µM (inactive)

Query: Supply recorded GI50 for `O=Cc1cn(CCCCCn2cc(C=O)c3ccccc32)c2ccccc12` here.
Reply: > 100 µM (inactive)
